// data source = patent US20220009894A1

- Target of assay: RORγt (Homo sapiens, UniProt P51449)
- Construct: The plasmid of pFN26A-RORγt-LBD and pG14.35 (Promega, Cat. No. E1370) were co-transfected into HEK 293 cells; expressed in transfected cells; host or cells: HEK 293 cells (Cat. No. GNHu18)
- Sequence (P51449 269-508 limits assumed): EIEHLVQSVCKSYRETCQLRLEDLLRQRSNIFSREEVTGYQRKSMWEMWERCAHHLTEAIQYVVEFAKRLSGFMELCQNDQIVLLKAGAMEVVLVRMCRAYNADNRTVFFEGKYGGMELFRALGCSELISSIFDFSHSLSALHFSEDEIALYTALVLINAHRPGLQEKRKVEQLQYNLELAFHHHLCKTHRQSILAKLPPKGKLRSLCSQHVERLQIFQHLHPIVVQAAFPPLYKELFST
- Method summary: RORγt cellular reporter gene detection assay;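 also: Ursolic Acid added as 5 µL of 20 µM medium per well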
- Format: cell-based
- Condition description: upper activation limit; HEK 293 cells, in presence of antagonist Ursolic acid, 24 hrs
Assay metric: Cellular Reporter Assay Amax

Example molecules with recorded Cellular Reporter Assay Amax:
Molecule	Target of assay	Endpoint result
C/C(=C\c1ccc2c(c1)N(S(=O)(=O)c1cccc(C(F)(F)F)c1)C[C@@H]1CN(C(C)C(=O)O)CCN21)c1c(F)cccc1Cl (stereo partly drawn) [Example 25]	RORγt (Homo sapiens, UniProt P51449)	4.4
O=S(=O)(c1cccc(C(F)(F)F)c1)N1C[C@@H]2CN(C[C@@H](O)CO)CCN2c2ccc(-c3cc(F)cc(OC(F)F)c3)cc21 [Example 39]	RORγt (Homo sapiens, UniProt P51449)	2.2
O=S(=O)(c1cccc(C(F)(F)F)c1)N1C[C@@H]2CCCN2c2ccc(-c3cc(F)cc(OC(F)F)c3)cc21 [Example 4]	RORγt (Homo sapiens, UniProt P51449)	4.9
NC(=O)C1(N2CCN3c4ccc(/C=C/c5c(Cl)cccc5C(F)(F)F)cc4N(S(=O)(=O)c4cccc(C(F)(F)F)c4)C[C@@H]3C2)CCC1 [Example 81]	RORγt (Homo sapiens, UniProt P51449)	4.0

(I) NC(=S)N1CCN2c3ccc(/C=C/c4c(Cl)cccc4C(F)(F)F)cc3N(S(=O)(=O)c3cccc(C(F)(F)F)c3)C[C@@H]2C1 [Example 65]
(II) C/C(=C\c1ccc2c(c1)N(S(=O)(=O)c1cccc(C(F)(F)F)c1)C[C@@H]1CN(CC(=O)OCOC(=O)OC(C)C)CCN21)c1c(F)cccc1Cl [Example 49]
Quick check, higher Cellular Reporter Assay Amax between I and II ? Please indicate the selected item by its label.
II

====

- Target of assay: RORγt (Homo sapiens, UniProt P51449)
- Construct: The plasmid of pFN26A-RORγt-LBD and pG14.35 (Promega, Cat. No. E1370) were co-transfected into HEK 293 cells; expressed in transfected cells; host or cells: HEK 293 cells (Cat. No. GNHu18)
- Method summary: RORγt cellular reporter gene detection assay;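 also: Ursolic Acid added as 5 µL of 20 µM medium per well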
- Type: cell-based
- Condition description: upper activation limit; HEK 293 cells, in presence of antagonist Ursolic acid, 24 hrs
- Description: II. RORγt Cellular Reporter Gene Detection Assay In this experiment, RORγt Reporter Gene Detection method was used to evaluate the activation and specificity of compounds to RORγt in cells. […] The efficacy of compounds was evaluated with the presence of an antagonist Ursolic acid (Selleck, Cat. No. S2370-100 mg). […] The dose effect was evaluated by a 4-fold dilution of the test compound starting from 50 μM; • 4. […]
Assay metric: Cellular Reporter Assay Amax

Example compounds with recorded Cellular Reporter Assay Amax:
Compound	Cellular Reporter Assay Amax
N#CC1(N2CCN3c4ccc(/C=C/c5c(Cl)cccc5C(F)(F)F)cc4N(S(=O)(=O)c4cccc(C(F)(F)F)c4)C[C@@H]3C2)CCC1 [Example 78]	2.4
NS(=O)(=O)N1CCN2c3ccc(-c4cc(F)cc(OC(F)F)c4)cc3N(S(=O)(=O)c3cccc(C(F)(F)F)c3)C[C@@H]2C1 [Example 67]	3.3
C/C(=C\c1ccc2c(c1)N(S(=O)(=O)c1cccc(C(F)(F)F)c1)C[C@@H]1CN(C[C@@H](O)CO)CCN21)c1c(F)cccc1Cl [Example 37]	3.7
CC(C)OC(=O)CN1CCN2c3ccc(/C=C/c4c(Cl)cccc4C(F)(F)F)cc3N(S(=O)(=O)c3cccc(C(F)(F)F)c3)C[C@@H]2C1 [Example 47]	2.1
C/C(=C\c1ccc2c(c1)N(S(=O)(=O)c1cccc(C(F)(F)F)c1)C[C@@H]1C[C@](C)(OCCC(=O)O)CCN21)c1c(F)cccc1Cl [Example 121]	2.4
CC(=O)N1CCN2c3ccc(C4=CC(C)(C)OC(C)(C)C4)cc3N(S(=O)(=O)c3cccc(C(F)(F)F)c3)C[C@@H]2C1 [Example 16]	2.0

(I) CC(C)(C(=O)O)N1CCN2c3ccc(-c4cc(F)cc(OC(F)F)c4)cc3N(S(=O)(=O)c3cccc(C(F)(F)F)c3)C[C@@H]2C1 [Example 54]
(II) N#CCC(=O)N1CCN2c3ccc(-c4cc(F)cc(OC(F)F)c4)cc3N(S(=O)(=O)c3cccc(C(F)(F)F)c3)C[C@@H]2C1 [Example 28]
(III) N#Cc1cc(F)cc(-c2ccc3c(c2)N(S(=O)(=O)c2cccc(C(F)(F)F)c2)C[C@@H]2CN(CC(=O)O)CCN32)c1 [Example 95]
(IV) O=C(O)CN1CCN2c3ccc(/C=C/c4c(Cl)cccc4C(F)(F)F)cc3N(S(=O)(=O)c3cccc(C(F)(F)F)c3)C[C@@H]2C1 [Example 20]
Let's sort these by Cellular Reporter Assay Amax, smallest first. Go ahead? Rank the items, then write their labels in that order.
III, II, I, IV

====

- Target of assay: RORγt (Homo sapiens, UniProt P51449)
- Construct: The plasmid of pFN26A-RORγt-LBD and pG14.35 (Promega, Cat. No. E1370) were co-transfected into HEK 293 cells; expressed in transfected cells; host or cells: HEK 293 cells (Cat. No. GNHu18)
- Method summary: RORγt cellular reporter gene detection assay;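 also: Ursolic Acid added as 5 µL of 20 µM medium per well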
- Type: cell-based
- Condition description: upper activation limit; HEK 293 cells, in presence of antagonist Ursolic acid, 24 hrs
Assay metric: Cellular Reporter Assay Amax

Example compounds with recorded Cellular Reporter Assay Amax:
> print(dat)
                                   compound  endpoint.result
1  CC(=O)N1CCN2c3ccc(/C=C/c4c(Cl)cccc4C(F)(F)F)cc3N(S(=O)(=O)c3cccc(OC(F)(F)F)c3)C[C@@H]2C1              4.7
2  C[C@]1(O)CCN2c3ccc(-c4cc(F)cc(OC(F)F)c4)cc3N(S(=O)(=O)c3cccc(C(F)(F)F)c3)C[C@@H]2C1              4.0
3  CC(=O)N1CCN2c3ccc(/C=C(\C)c4c(F)cccc4Cl)cc3N(S(=O)(=O)c3cccc(C(F)(F)F)c3)C[C@@H]2C1              3.2
4  C/C(=C\c1ccc2c(c1)N(S(=O)(=O)c1cccc(C(F)(F)F)c1)C[C@@H]1CN(C(C)(CO)CO)CCN21)c1c(F)cccc1Cl              3.5
5  CS(=O)(=O)N1CCN2c3ccc(/C=C/c4c(Cl)cccc4C(F)(F)F)cc3N(S(=O)(=O)c3cccc(C(F)(F)F)c3)C[C@@H]2C1              4.2
6  NC(=O)OC1CCN2c3ccc(-c4cc(F)cc(OC(F)F)c4)cc3N(S(=O)(=O)c3cccc(C(F)(F)F)c3)C[C@@H]2C1 (stereo partly shown)              2.3

(a) N#Cc1cc(Cl)cc(-c2ccc3c(c2)N(S(=O)(=O)c2cccc(C(F)(F)F)c2)C[C@@H]2CN(CC(=O)O)CCN32)c1
(b) C/C(=C\c1ccc2c(c1)N(S(=O)(=O)c1cccc(C(F)(F)F)c1)C[C@@H]1CN(S(C)(=O)=O)CCN21)c1c(F)cccc1Cl
(c) O=C(O)CN1CCN2c3ccc(/C=C/c4c(Cl)cccc4C(F)(F)F)cc3N(S(=O)(=O)c3cccc(C(F)(F)F)c3)C[C@H]2C1
(d) CC1(C)C=C(c2ccc3c(c2)N(S(=O)(=O)c2cccc(C(F)(F)F)c2)C[C@@H]2CN(C4COC4)CCN32)CC(C)(C)O1
Let's sort these by Cellular Reporter Assay Amax, smallest first. Go ahead? Rank the items, then write their labels in that order.
d, a, b, c

(A) O=S(=O)(c1cccc(C(F)(F)F)c1)N1CCNc2ccc(-c3cc(F)cc(OC(F)F)c3)cc21
(B) COc1ncc(C(F)(F)F)cc1S(=O)(=O)N1C[C@@H]2CN(CC(=O)O)CCN2c2ccc(-c3cc(F)cc(OC(F)F)c3)cc21
(C) CN1c2ccc(-c3cc(F)cc(OC(F)F)c3)cc2N(S(=O)(=O)c2cccc(C(F)(F)F)c2)C[C@@H]1CCC(=O)O
Rank by Cellular Reporter Assay Amax (largest to smallest). Rank the items, then write their labels in that order.
C, A, B
(C: 5.0, A: 3.1, B: 2.1)
